# Test target: rP2X7 (Rattus norvegicus)
# Sequence (Q64663 1-595): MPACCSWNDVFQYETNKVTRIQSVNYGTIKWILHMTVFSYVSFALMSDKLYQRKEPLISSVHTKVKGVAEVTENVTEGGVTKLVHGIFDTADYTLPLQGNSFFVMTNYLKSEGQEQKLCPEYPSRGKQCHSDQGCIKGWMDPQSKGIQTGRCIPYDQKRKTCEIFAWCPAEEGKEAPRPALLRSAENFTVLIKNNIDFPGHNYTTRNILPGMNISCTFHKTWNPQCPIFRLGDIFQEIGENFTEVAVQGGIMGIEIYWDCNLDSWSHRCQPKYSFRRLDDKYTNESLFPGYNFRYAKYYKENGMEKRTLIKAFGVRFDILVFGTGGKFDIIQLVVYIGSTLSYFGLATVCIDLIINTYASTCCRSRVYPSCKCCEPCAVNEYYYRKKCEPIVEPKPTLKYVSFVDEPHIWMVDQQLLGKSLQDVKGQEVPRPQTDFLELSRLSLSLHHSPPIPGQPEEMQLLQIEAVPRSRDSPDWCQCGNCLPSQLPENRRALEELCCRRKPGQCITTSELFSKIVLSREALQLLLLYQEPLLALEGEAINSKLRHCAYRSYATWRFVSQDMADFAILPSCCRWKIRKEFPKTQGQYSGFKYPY
# Experiment summary: TEVC inhibition dose-response (IC50), wild-type rP2X7 in Xenopus laevis oocytes
# Conditions used: wild-type rP2X7, TEVC, 100 μM ATP, 60 s antagonist pre-application, mean ± SD, triplicate
# Source text: To evaluate the inhibitory response of an antagonist for a dilution series, an initial excitatory signal was evoked at a subtype-specific concentration of ATP. Next, the antagonist was applied at a test concentration for 60 s and then coapplied at the same test concentration of the antagonist with the identical subtype-specific concentration of ATP. The antagonized signal was then normalized against the preceding excitatory signal evoked by ATP for each individual oocyte tested. […]
Measurement name: pIC50
Reminder that pIC50 means the negative base-10 logarithm of the concentration expressed in mol/L.

Some molecules with known pIC50 results, for comparison:
Clc1cccc(-n2nnnc2NCc2ccccc2Oc2ccccn2)c1Cl    6.94
Clc1cccc(-c2nnnn2Cc2cccnc2)c1Cl    6.26
O=S(=O)(O)c1ccc(N=C2C=CC(=C(c3ccc(Nc4ccc(S(=O)(=O)O)cc4)cc3)c3ccc(Nc4ccc(S(=O)(=O)O)cc4)cc3)C=C2)cc1    5.40
CN1C(=O)CC[C@H]1C(=O)NCc1cccc(C(F)(F)F)c1Cl    5.44
O=C(NCC12CC3CC(CC(C3)C1)C2)c1cc(CCCNCCCO)ccc1Cl    6.52

Let's switch to this molecule now.
In plain terms, `O=C(NCC1(N2CCN(c3ccccc3)CC2)CCOCC1)c1cccnc1Sc1ccccc1` has a documented pIC50 of 7.66
